- target: PvENT4 (Plasmodium vivax, UniProt A5K9X9)
- Format: cell-based
- assay_context: 1.5 μM radiolabeled compound, 60 min
value_type: Uptake of radiolabeled substrate relative to H2O-injected oocytes

smiles_notation	observed_result
Cc1c[nH]c(=O)[nH]c1=O	less accumulation
Nc1nc2c(ncn2[C@H]2C[C@H](O)[C@@H](CO)O2)c(=O)[nH]1	greater uptake
Nc1ncnc2[nH]cnc12	greater uptake
Nc1ncnc2c1ncn2[C@H]1C[C@H](O)[C@@H](CO)O1	greater uptake
O=c1[nH]cnc2c1ncn2[C@@H]1O[C@H](CO)[C@@H](O)[C@H]1O	greater uptake
Nc1ncnc2c1ncn2[C@@H]1O[C@H](CO)[C@@H](O)[C@H]1O	greater uptake
O=c1cc[nH]c(=O)[nH]1	less accumulation

FYI, the data here is from paper PMC3756485.
